FYI, the data here is from patent US10336702B2.

Listed below: IC50 values for each entry.
# system: Akt3 (Homo sapiens, UniProt Q9Y243)
# Construct: unspecified tag, removed (detagged) (cleaved yes); purchased SignalChem and Proteros (Akt3); Merck Millipore (PDK1) 14-452 (PDK1); none given for Akt3
# Sequence (Q9Y243 whole entry): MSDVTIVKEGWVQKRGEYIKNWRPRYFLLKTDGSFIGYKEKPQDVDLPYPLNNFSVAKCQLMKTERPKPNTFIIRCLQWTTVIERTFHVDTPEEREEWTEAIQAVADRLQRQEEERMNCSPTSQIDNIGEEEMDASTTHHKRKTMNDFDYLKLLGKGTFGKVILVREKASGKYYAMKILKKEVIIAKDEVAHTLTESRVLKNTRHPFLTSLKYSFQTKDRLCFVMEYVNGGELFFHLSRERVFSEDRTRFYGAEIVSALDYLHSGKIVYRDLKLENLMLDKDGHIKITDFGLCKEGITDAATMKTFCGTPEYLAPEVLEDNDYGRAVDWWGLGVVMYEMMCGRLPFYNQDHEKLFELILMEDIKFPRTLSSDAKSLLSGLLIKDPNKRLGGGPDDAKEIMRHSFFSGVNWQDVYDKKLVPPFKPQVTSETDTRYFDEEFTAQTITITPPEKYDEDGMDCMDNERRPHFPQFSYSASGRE
# test-method-notes: Akt activation assay (PDK1-mediated activation, LANCE Ultra crosstide TR-FRET), Akt3
# Format: biochemical
# details: read-out: Biological Assay 1 IC50 (nM) Akt3
Enter your answer as a number in nM; do not include the unit.

Here is how some molecules turned out for IC50.
{"chem-smiles": "CC(C)(N)c1ccc(-c2ncc(NC(=O)C[C@H]3CC[C@H](C(=O)N4CCCC4)CC3)cc2-c2ccccc2)cc1", "unit-annotation": "nM", "reported-value": 370}
{"chem-smiles": "CC(=O)N[C@H]1CC[C@H](CC(=O)Nc2cnc(-c3ccc(C4(N)CC(F)(F)C4)cc3)c(-c3ccccc3)c2)CC1", "unit-annotation": "nM", "reported-value": 170}

*Q* Return reported IC50; argument: `CCN(C(=O)C1CC1)[C@H]1CC[C@H](CC(=O)Nc2cc(-c3ccccc3)c(-c3ccc([C@]4(N)C[C@](C)(O)C4)cc3)nn2)CC1`
*A* 7

* * *

# system: p-Akt1 in LNCaP cells (Homo sapiens)
# Construct: SureFire assays to detect cellular p-Akt1, p-Akt2 and p-Akt3 levels in WM115 cells (Akt2/3) and LNCaP cells (Akt1); endogenous in cells; host or cells: LNCaP (ECACC 89110211)
# test-method-notes: Phospho-Akt cellular SureFire assay, p-Akt1 in LNCaP cells
# Assay type: cell-based
# details: read-out: Biological Assay 2 IC50 (nM) Akt1 LNCaP
IC50 by entry:

*Q* Data request, read-out IC50, for CC(C)(N)c1ccc(-c2nnc(NC(=O)C[C@H]3CC[C@H](N4CCOC4=O)CC3)cc2-c2ccsc2)cc1 [Example 80]
*A* > 30000 nM

*Q* Fill blank: measured IC50 of the molecule CC(C)N(C(=O)C1CC1)[C@H]1CC[C@H](CC(=O)Nc2cc(-c3ccccc3)c(-c3ccc([C@]4(N)C[C@](C)(O)C4)cc3)cn2)CC1 [Example A108] is ____.
*A* > 10000 nM

*Q* Which IC50 value is on record for CC(=O)N(C)[C@H]1CC[C@H](CC(=O)Nc2cc(-c3ccccc3)c(-c3ccc(C4(N)CCC4)cc3)cn2)CC1 [Example 33] ?
*A* 9800 nM

* * *

# system: p-Akt1 in LNCaP cells (Homo sapiens, UniProt P31749)
# Construct: SureFire assays to detect cellular p-Akt1, p-Akt2 and p-Akt3 levels in WM115 cells (Akt2/3) and LNCaP cells (Akt1); endogenous in cells; host or cells: LNCaP (ECACC 89110211)
# Sequence (P31749 whole entry): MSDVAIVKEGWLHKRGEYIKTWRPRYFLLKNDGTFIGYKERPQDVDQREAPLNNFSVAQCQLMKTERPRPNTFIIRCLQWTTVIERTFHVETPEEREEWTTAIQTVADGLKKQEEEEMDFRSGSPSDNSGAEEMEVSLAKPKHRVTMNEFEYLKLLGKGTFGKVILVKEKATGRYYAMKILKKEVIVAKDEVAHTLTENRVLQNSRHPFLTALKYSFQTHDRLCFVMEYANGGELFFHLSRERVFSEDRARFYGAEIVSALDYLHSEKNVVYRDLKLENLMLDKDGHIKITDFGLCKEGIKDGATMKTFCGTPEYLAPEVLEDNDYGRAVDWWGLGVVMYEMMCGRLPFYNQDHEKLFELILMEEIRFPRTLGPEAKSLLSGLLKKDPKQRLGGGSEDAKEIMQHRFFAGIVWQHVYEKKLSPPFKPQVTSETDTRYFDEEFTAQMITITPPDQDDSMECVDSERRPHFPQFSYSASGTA
# test-method-notes: Phospho-Akt cellular SureFire assay, p-Akt1 in LNCaP cells
# Format: cell-based
# details: read-out: Biological Assay 2 IC50 (nM) Akt1 LNCaP
recorded-metric: IC50

Example compounds with recorded IC50:
{"chem-smiles": "C[C@]1(O)C[C@@](N)(c2ccc(-c3nnc(NC(=O)C[C@H]4CC[C@H](N5CCCCC5=O)CC4)cc3-c3ccccc3)cc2)C1", "system": "p-Akt1 in LNCaP cells (Homo sapiens, UniProt P31749)", "reported-value": "1900 nM"}
{"chem-smiles": "CCN(C(C)=O)[C@H]1CC[C@H](CC(=O)Nc2cc(-c3ccccc3)c(-c3ccc([C@]4(N)C[C@](C)(O)C4)cc3)nn2)CC1", "system": "p-Akt1 in LNCaP cells (Homo sapiens, UniProt P31749)", "reported-value": "4000 nM"}
{"chem-smiles": "CN(C(=O)C1CCC1)[C@H]1CC[C@H](CC(=O)Nc2cnc(-c3ccc(C(C)(C)N)cc3)c(-c3ccccc3)c2)CC1", "system": "p-Akt1 in LNCaP cells (Homo sapiens, UniProt P31749)", "reported-value": "> 30000 nM"}
{"chem-smiles": "CN([C@H]1CC[C@H](CC(=O)Nc2cnc(-c3ccc(C(C)(C)N)cc3)c(-c3ccsc3)c2)CC1)S(C)(=O)=O", "system": "p-Akt1 in LNCaP cells (Homo sapiens, UniProt P31749)", "reported-value": "> 30000 nM"}

*Q* Recorded IC50 for `CC(C)(N)c1ccc(-c2cnc(NC(=O)C[C@H]3CC[C@H](N4CCOC4=O)CC3)cc2-c2ccsc2)cc1` , please?
*A* > 30000 nM

*Q* Which IC50 value belongs to `CC(=O)N(C)[C@H]1CC[C@H](CC(=O)Nc2cc(-c3ccsc3)c(-c3ccc(C(C)(C)N)cc3)nn2)CC1` ?
*A* > 30000 nM

*Q* Requested field: IC50. Item: `CCC(=O)N(C)[C@H]1CC[C@H](CC(=O)Nc2cnc(-c3ccc(C(C)(C)N)cc3)c(-c3ccccc3)c2)CC1`
*A* > 30000 nM

*Q* Which IC50 reading was recorded for the compound `CC(=O)N(C)[C@H]1CC[C@H](CC(=O)Nc2cnc(-c3ccc(C(C)(C)N)cc3)c(-c3ccccc3F)c2)CC1` ?
*A* > 30000 nM

*Q* What measured IC50 goes with `COC(=O)N(C(C)C)[C@H]1CC[C@H](CC(=O)Nc2cnc(-c3ccc(C4(N)CCC4)cc3)c(-c3ccccc3)c2)CC1` ?
*A* > 30000 nM

*Q* Any idea what IC50 was measured for `N[C@]1(c2ccc(-c3nnc(NC(=O)C[C@H]4CC[C@H](N5CCOC5=O)CC4)cc3-c3ccsc3)cc2)C[C@@H](F)C1` ?
*A* > 30000 nM

*Q* Please give the measured IC50 for this compound: `COC(=O)N(C)[C@H]1CC[C@H](CC(=O)Nc2cnc(-c3ccc(C4(N)CC4)c(F)c3)c(-c3ccccc3)c2)CC1`
*A* > 30000 nM

*Q* Quick check: IC50 of `NC1(c2ccc(-c3cnc(NC(=O)C[C@H]4CC[C@H](N5CCCC5=O)CC4)cc3-c3ccccc3)cc2)CCC1` ?
*A* 3400 nM

*Q* Which measured IC50 value corresponds to `COC(=O)N(C)[C@H]1CC[C@H](CC(=O)Nc2cc(-c3ccccn3)c(-c3ccc(C4(N)CCC4)cc3)cn2)CC1` ?
*A* > 30000 nM

*Q* Item under review: `CC(C)C(=O)N(C)[C@H]1CC[C@H](CC(=O)Nc2cc(-c3ccccc3)c(-c3ccc([C@]4(N)C[C@](C)(O)C4)cc3)nn2)CC1` . Reported IC50?
*A* 1900 nM

*Q* Bench note: what IC50 did `COC(=O)N(C)[C@H]1CC[C@H](CC(=O)Nc2cc(-c3ccccc3)c(-c3ccc(C(C)(C)N)cc3)nn2)CC1` show?
*A* > 30000 nM

*Q* Give its IC50 value. Item: `N[C@]1(c2ccc(-c3nnc(NC(=O)C[C@H]4CC[C@H](N5CCCC5=O)CC4)cc3-c3ccccc3)cc2)C[C@@H](F)C1`
*A* > 30000 nM

*Q* Given the compound `CC(C)(N)c1ccc(-c2cnc(NC(=O)C[C@H]3CC[C@H](N4CCCC4=O)CC3)cc2-c2ccccc2)cc1` , what is its reported IC50?
*A* > 30000 nM

*Q* Please give the measured IC50 for this compound: `CCC(=O)N(C)[C@H]1CC[C@H](CC(=O)Nc2cc(-c3ccsc3)c(-c3ccc([C@]4(N)C[C@H](F)C4)cc3)nn2)CC1`
*A* > 30000 nM

*Q* Look up IC50 for this compound: `NC1(c2ccc(-c3ncc(NC(=O)C[C@H]4CC[C@H](N5CCCC5=O)CC4)cc3-c3ccsc3)cc2)CCC1`
*A* > 27000 nM

*Q* For `N[C@]1(c2ccc(-c3ncc(NC(=O)C[C@H]4CC[C@H](N5CCOC5=O)CC4)cc3-c3ccccc3)cc2)C[C@@H](F)C1` , what is its reported IC50?
*A* 2000 nM

*Q* Request the reported IC50 associated with `COCC(=O)N(C)[C@H]1CC[C@H](CC(=O)Nc2cc(-c3ccccc3)c(-c3ccc([C@]4(N)C[C@](C)(O)C4)cc3)cn2)CC1`
*A* 7300 nM

*Q* // query IC50 value for entry `CN(C(=O)C1CC1)[C@H]1CC[C@H](CC(=O)Nc2cnc(-c3ccc(C(C)(C)N)cc3)c(-c3ccccc3)c2)CC1`
*A* > 28000 nM

*Q* Would you mind telling me what IC50 value was observed for `CN(C(=O)C1CCC1)[C@H]1CC[C@H](CC(=O)Nc2cc(-c3ccccc3)c(-c3ccc(C4(N)CC4)cc3)nn2)CC1` ?
*A* > 30000 nM

*Q* Could you tell me which IC50 is on file for `CN(C(=O)C1CC1)[C@H]1CC[C@H](CC(=O)Nc2cc(-c3ccccc3)c(-c3ccc([C@]4(N)C[C@H](F)C4)cc3)nn2)CC1` ?
*A* 9100 nM

*Q* I would be grateful if you could share the reported IC50 for `CC(C)(N)c1ccc(-c2ncc(NC(=O)C[C@H]3CC[C@H](C(=O)N4CCCC4)CC3)cc2-c2ccccc2)cc1` .
*A* > 30000 nM

*Q* Fill in: IC50 of `COC(=O)N(C(C)C)[C@H]1CC[C@H](CC(=O)Nc2cc(-c3ccccc3)c(-c3ccc([C@]4(N)C[C@](C)(O)C4)cc3)cn2)CC1` is ___
*A* 9000 nM
